Data provenance is patent US12281119B2.

Target: human TLR 8 protein (Homo sapiens, UniProt Q9NR97)
Sequence (Q9NR97 27-1041): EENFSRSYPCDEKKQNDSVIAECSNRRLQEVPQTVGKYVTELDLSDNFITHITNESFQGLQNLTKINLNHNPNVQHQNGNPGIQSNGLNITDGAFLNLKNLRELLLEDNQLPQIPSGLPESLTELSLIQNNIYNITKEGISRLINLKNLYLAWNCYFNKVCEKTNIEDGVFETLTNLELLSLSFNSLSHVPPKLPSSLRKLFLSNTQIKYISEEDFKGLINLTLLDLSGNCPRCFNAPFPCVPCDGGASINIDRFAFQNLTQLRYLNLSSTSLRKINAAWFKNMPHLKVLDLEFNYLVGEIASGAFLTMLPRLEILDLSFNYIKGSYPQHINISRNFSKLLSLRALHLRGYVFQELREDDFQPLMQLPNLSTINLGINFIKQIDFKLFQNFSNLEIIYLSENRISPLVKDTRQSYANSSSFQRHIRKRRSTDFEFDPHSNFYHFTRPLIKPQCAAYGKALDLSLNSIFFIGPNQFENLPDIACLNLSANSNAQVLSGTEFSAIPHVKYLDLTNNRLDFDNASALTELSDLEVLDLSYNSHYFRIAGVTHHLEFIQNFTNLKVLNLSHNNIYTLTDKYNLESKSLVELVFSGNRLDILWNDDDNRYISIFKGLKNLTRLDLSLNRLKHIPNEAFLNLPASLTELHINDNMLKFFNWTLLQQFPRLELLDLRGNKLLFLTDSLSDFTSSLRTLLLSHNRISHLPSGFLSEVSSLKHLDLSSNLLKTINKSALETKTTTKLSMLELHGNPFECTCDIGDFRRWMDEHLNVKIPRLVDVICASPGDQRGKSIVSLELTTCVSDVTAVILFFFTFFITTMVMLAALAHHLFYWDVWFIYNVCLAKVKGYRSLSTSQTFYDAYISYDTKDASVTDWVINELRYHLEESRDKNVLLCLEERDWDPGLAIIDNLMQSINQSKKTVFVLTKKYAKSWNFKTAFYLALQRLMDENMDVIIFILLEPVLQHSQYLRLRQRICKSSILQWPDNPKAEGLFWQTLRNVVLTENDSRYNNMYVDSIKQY
Assay: TLR8 stimulation determined using HEK-Blue Detection
Conditions: HEK-Blue hTLR8 cells, 16 hr, relative to Resiquimod or Motolimod maximum
Text: TLR8 Stimulation Determined Using HEK-Blue Detection This assay was designed for studying the stimulation of human TLR 8 protein in HEK-Blue hTLR8 tool cell line by monitoring the activation of NF-1B. […] Levels of SEAP can be easily determined with HEK-Blue Detection, a cell culture medium that allows for real-time detection of SEAP. […] The hydrolysis of the substrate by SEAP produces a purple/blue color that can be measured with a spectrophotometer. […]
test-readout: pEC50
# pEC50 is unitless: minus log10 of the molar concentration; print number only

Take a look at these entries with their results.
{"compound": "CCCC(C)Oc1nc(N)c2ncc(Cc3ccc(OCCNC)nc3)n2n1 (stereo not shown) [Compound A77]", "target-of-assay": "human TLR 8 protein (Homo sapiens, UniProt Q9NR97)", "test-readout": "pEC50", "measured-number": 6.53}
{"compound": "CCCC(CCO)Oc1nc(N)c2ncc(Cc3cc(F)c(OCCNC)c(F)c3)n2n1 (single isomer, unassigned) [Compound A114]", "target-of-assay": "human TLR 8 protein (Homo sapiens, UniProt Q9NR97)", "test-readout": "pEC50", "measured-number": 8.17}

Query :: Kindly state the measured pEC50 obtained for CCCC(CCO)Oc1nc(N)c2ncc(Cc3ccc(OCCNC)nc3OC)n2n1 (stereo not shown) [Compound A96] with human TLR 8 protein (Homo sapiens, UniProt Q9NR97).
Result :: 7.54

Query :: Kindly state the measured pEC50 obtained for CCCC(CCO)Oc1nc(N)c2ncc(Cc3ccc(OCCNC)c(Cl)c3)n2n1 (stereo not shown) [Compound A102] with human TLR 8 protein (Homo sapiens, UniProt Q9NR97).
Result :: 6.87

Query :: Kindly state the measured pEC50 obtained for CCCCOc1nc(N)c2ncc(Cc3ccc4c(c3)CCN(C(C)C)C4)n2n1 [Compound A8] with human TLR 8 protein (Homo sapiens, UniProt Q9NR97).
Result :: 6.73

Query :: Kindly state the measured pEC50 obtained for CCCC(CCO)Oc1nc(N)c2ncc(Cc3ccc(CCNC)cc3)n2n1 (stereo not shown) [Compound A95] with human TLR 8 protein (Homo sapiens, UniProt Q9NR97).
Result :: 7.72

Query :: Kindly state the measured pEC50 obtained for CCCC(CCO)Oc1nc(N)c2ncc(Cc3ccc(CCNC)cc3)n2n1 (single isomer, unassigned) [Compound A120] with human TLR 8 protein (Homo sapiens, UniProt Q9NR97).
Result :: 7.23

Query :: Kindly state the measured pEC50 obtained for CCCC(CCO)Oc1nc(N)c2ncc(Cc3ccc(OCCCNC)nc3)n2n1 (stereo not shown) [Compound A86] with human TLR 8 protein (Homo sapiens, UniProt Q9NR97).
Result :: 6.27

Query :: Kindly state the measured pEC50 obtained for CCCC(CCO)Oc1nc(N)c2ncc(Cc3ccc(OCCNC)nc3)n2n1 (stereo not shown) [Compound A79] with human TLR 8 protein (Homo sapiens, UniProt Q9NR97).
Result :: 7.16

Query :: Kindly state the measured pEC50 obtained for CCCC(CCO)Oc1nc(N)c2ncc(Cc3ccc(OCC(C)NC)nc3)n2n1 (single isomer, unassigned) [Compound A122] with human TLR 8 protein (Homo sapiens, UniProt Q9NR97).
Result :: 6.95

Query :: Kindly state the measured pEC50 obtained for CCCC(CCO)Oc1nc(N)c2ncc(Cc3ccc(OCCNC)nc3)n2n1 (single isomer, unassigned) [Compound A81] with human TLR 8 protein (Homo sapiens, UniProt Q9NR97).
Result :: 5.20

Query :: Kindly state the measured pEC50 obtained for CCCC(CCO)Oc1nc(N)c2ncc(Cc3ccc(OCCNC)c4ccccc34)n2n1 (single isomer, unassigned) [Compound A124] with human TLR 8 protein (Homo sapiens, UniProt Q9NR97).
Result :: 6.98

Query :: Kindly state the measured pEC50 obtained for CCCCOc1nc(N)c2ncc(Cc3ccc(CN4CCNCC4)cc3)n2n1 [Compound A10] with human TLR 8 protein (Homo sapiens, UniProt Q9NR97).
Result :: 6.24

Query :: Kindly state the measured pEC50 obtained for CCC[C@H](C)Oc1nc(N)c2ncc(Cc3ccc(OCCNC)c(F)c3)n2n1 [Compound A99] with human TLR 8 protein (Homo sapiens, UniProt Q9NR97).
Result :: 6.89

Query :: Kindly state the measured pEC50 obtained for CCCC(CCO)Oc1nc(N)c2ncc(Cc3ccc(OCCNC)cc3OCC)n2n1 (single isomer, unassigned) [Compound A121] with human TLR 8 protein (Homo sapiens, UniProt Q9NR97).
Result :: 7.72

Query :: Kindly state the measured pEC50 obtained for CC[C@H](C)Oc1nc(N)c2ncc(Cc3ccc(OCCNC)nc3)n2n1 [Compound A89] with human TLR 8 protein (Homo sapiens, UniProt Q9NR97).
Result :: 6.70
